# Tested on: S6K1
# conditionDescription: concentration: 1 μM, replicates: in singlicate; n = 1;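 further: KINOMEscan kinase panel screen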
The molecules listed here are annotated with their %Inh.
Number only, in %; omit the unit.

molecule: CN(c1ccc(NC(=O)Nc2cc(C(F)(F)F)ccc2F)cc1)c1ccnc(Nc2ccc(S(N)(=O)=O)cc2)n1 [GW809893]
%Inh, %: 40

molecule: COc1ccc(Nc2nccc(N3CCC(NC(=O)Nc4cccc(OC)c4)C3)n2)cc1 (stereo not drawn) [GSK1379742]
%Inh, %: 0

molecule: CNC(=O)c1ccccc1Nc1nc(Nc2ccc(N3CCOCC3)cc2)ncc1Cl.Cl [GSK1576028]
%Inh, %: 97

molecule: Cn1cc(-c2[nH]c3cc(NC(=O)[C@H](N)C4CCCCC4)cc4c3c2C=NNC4=O)cn1
%Inh, %: 76

molecule: CC(=O)N1CCN(c2ccc(Nc3nccc(-c4sc(C(C)C)nc4-c4cccc(NS(=O)(=O)c5cccc(Cl)c5)c4)n3)cn2)CC1 [GSK1660437]
%Inh, %: 0

Given the molecule c1ccc(-c2cnc3nccnn23)cc1 [AH20685] , what is its reported %Inh? 10

What %Inh value was documented for this molecule, COc1cccc(NC(=O)NC2CCN(c3ccnc(Nc4cc(OC)c(OC)c(OC)c4)n3)C2)c1 (stereo not drawn) [GSK1379763] ? 0

Request the reported %Inh associated with Cl.Cl.NCC(C(=O)Nc1cc(Br)c(-c2ccnc3[nH]ccc23)s1)c1ccccc1 (stereo not drawn) [GSK1269851] 35

Consider the molecule O=C(Nc1ccccc1F)NC1CCN(c2ccnc(Nc3ccc(F)cc3)n2)CC1 [GSK1379800] and give its measured %Inh. 0

Item Cl.c1ccc(-c2ccc3c(Nc4ccc5[nH]ncc5c4)ccnc3c2)nc1 [GW440137] has what recorded %Inh? 0

Query (molecule): Cl.Cl.NCC(NC(=O)c1cc(-c2ccccc2)c(-c2ccnc3[nH]ccc23)s1)c1ccccc1 (stereo not drawn) [GSK1321561] ; field requested: %Inh 6

So what does the record say about %Inh for Cc1ccc(C)c(NC(=O)NC2CCN(c3ccnc(Nc4ccc(F)cc4)n3)C2)c1 (stereo not drawn) [GSK1379720] ? 8

What does the record list as %Inh for O=C(Nc1cccc(Oc2ccc3nc(NC(=O)C4CC4)cn3n2)c1)c1ccccc1C(F)(F)F ? 0

###

# Tested on: CAMK1
# conditionDescription: concentration: 1 μM, replicates: in singlicate; n = 1
Here, each record is paired with measured %Inh data.
Report only the number, with the unit % understood.

compound: Cc1occc1-c1ncc(OC[C@@H](N)Cc2c[nH]c3ccccc23)cc1-c1ccc2[nH]nc(C)c2c1.O=C(O)C(F)(F)F [GSK682037]
readoutUnits: %
%Inh: 25

compound: COc1ccc(Nc2nccc(N3CCC(NC(=O)Nc4cccc(OC)c4)C3)n2)cc1 (centres unmarked) [GSK1379742]
readoutUnits: %
%Inh: 0

compound: Nc1ncc(-c2ccc3nccc(-c4ccncc4)c3c2)cc1S(=O)(=O)N1CCOCC1 [GSK1627798]
readoutUnits: %
%Inh: 27

Entry COc1cc(Nc2nccc(-c3c(-c4cccc(NC(=O)c5c(F)cccc5F)c4)nn4ccccc34)n2)cc(OC)c1OC [GSK323521] has what %Inh? 31

What measured %Inh goes with CCCCc1nn2ncccc2c1-c1ccnc(Nc2ccc(N3CCN(C)CC3)cc2)n1 [GW684941] ? 28

Query: %Inh; subject: O=C(O)C(F)(F)F.O=C(O)C(F)(F)F.O=c1[nH]ccc2nc(N[C@@H]3CCCNC3)nc(Nc3ccc(S(=O)(=O)N4CCOCC4)cc3)c12 [GSK2177277] 88

Recorded %Inh of O=C(Nc1cccc(-c2nn3ccccc3c2-c2ccnc(Nc3cccc(F)c3)n2)c1)c1c(F)ccc(F)c1Cl [GSK357952] , please. 12
